read-out: Matrix Metallopeptidase 1 (MMP1), MMP1 (gene 4312); assay: BSK_BE3C_MMP1: BioMAP Diversity Plus: BE3C Assay for Matrix Metallopeptidase 1 (MMP1) Biomarker Activity (AID 2283024); conditions: primary human bronchial epithelial cells; actives raise or lower the signal
Active and inactive are the calls of the source. The calls were made as follows: active = hit-call score of the fitted dose curve at least 0.9, where 1 is the maximum; inactive = score below 0.9.
// one of active, inactive, no free text

Worked examples follow.
> print(dat)
                                   compound     label
1  Cc1ncc([C@@H](CCCCCCc2ccc3c(n2)NCCC3)CC(=O)O)cn1  inactive
2                      c1ccc2cc3ccccc3cc2c1  inactive
3                                  CNC(C)=O  inactive
4  Cc1nc(-c2ccccn2)ncc1C(=O)Nn1cc(C)c2cc(F)ccc21  inactive
5  C[C@]12C=CC(=O)C=C1CC[C@H]1[C@@H]3C[C@@H](O)[C@](O)(C(=O)CO)[C@@]3(C)C[C@H](O)[C@@]12F  inactive
6                            CC(=O)c1ccccc1  inactive

Lookup: Tell me the recorded outcome of this test for c1ccc2c(c1)-c1cccc3c1c-2cc1ccccc13 .
Found: active

Lookup: Tell me the recorded outcome of this test for CCCCCCCC/C=C\CCCCCCCC(=O)OC[C@@H](O)[C@H]1OC[C@H](O)[C@H]1O .
Found: inactive

Lookup: Tell me the recorded outcome of this test for CC(C)CCCCCCOC(=O)C1CCCCC1C(=O)OCCCCCCC(C)C (centres undefined) .
Found: inactive

Lookup: Tell me the recorded outcome of this test for OC(CCl)CCl .
Found: inactive

Lookup: Tell me the recorded outcome of this test for O=C(O)c1ccc2c(c1)nc(C(=O)NC1CCN(C3CC3)CC1)n2Cc1cc(-c2ccc(Cl)s2)on1 .
Found: inactive

Lookup: Tell me the recorded outcome of this test for C=CCc1cc(S(=O)(=O)c2ccc(O)c(CC=C)c2)ccc1O .
Found: active

###

read-out: CYP4A11 (gene 1579); test: LTEA_HepaRG_CYP4A11: Life Technologies and Expression Analysis (LTEA) Assay for CYP4A11 using HepaRG (AID 2283486); settings: mRNA level, 48 h; actives raise or lower the signal
Active and inactive are the calls of the source. The calls were made as follows: active = hit-call score of the fitted dose curve at least 0.9, where 1 is the maximum; inactive = score below 0.9.
// one of active, inactive, no free text

Worked examples follow.
compound	label
CC[C@H](C)C(=O)O[C@H]1C[C@H](O)C=C2C=C[C@H](C)[C@H](CC[C@@H](O)C[C@@H](O)CC(=O)O)[C@H]21	inactive
CC1(C)C(=O)N(Cl)C(=O)N1Cl	inactive
CCCc1ccccc1	inactive
NC(=O)N(O)[C@@H]1COc2cc(OCc3ccccc3)ccc21	inactive
C[C@@H](Oc1ccc(CNC(=O)c2cccnc2Oc2ccc3c(c2)OCO3)c(F)c1)C(=O)O	active
CCn1nc(C)c2c1C(=O)NCC(c1ccc(O)cc1)=N2	active
CCOC(N)=O	inactive
O=S(=O)(O)c1ccc(N=Nc2c(O)ccc3cc(S(=O)(=O)O)ccc23)cc1	inactive
OC(Cn1cncn1)(Cn1cncn1)c1ccc(F)cc1F	inactive
OCCNCCO	inactive

Lookup: Tell me the recorded outcome of this test for Cc1nccn1-c1ccc(Sc2cccc(C3(C(N)=O)CCOCC3)c2)cc1 .
Found: active

Lookup: Tell me the recorded outcome of this test for CCCCN1C(=O)[C@@H]([C@H](O)C2CCCCC2)NC(=O)C12CCN(Cc1ccc(Oc3ccc(C(=O)O)cc3)cc1)CC2 .
Found: active

Lookup: Tell me the recorded outcome of this test for O=S1(=O)CCCO1 .
Found: inactive

Lookup: Tell me the recorded outcome of this test for NC(=O)N1c2ccccc2C=Cc2ccccc21 .
Found: inactive

Lookup: Tell me the recorded outcome of this test for NNC(=O)c1ccncc1 .
Found: inactive

Lookup: Tell me the recorded outcome of this test for C=CN1CCCC1=O .
Found: inactive

Lookup: Tell me the recorded outcome of this test for CCc1ccc(O)c(C(C)(C)C)c1 .
Found: inactive

Lookup: Tell me the recorded outcome of this test for NC(N)=O .
Found: inactive

Lookup: Tell me the recorded outcome of this test for c1ccc2ncccc2c1 .
Found: inactive

Lookup: Tell me the recorded outcome of this test for COCc1nnc(-c2ccc[n+]([O-])c2)n1-c1c(Cl)c(Cl)cc2[nH]c(=O)c(=O)[nH]c12 .
Found: inactive

Lookup: Tell me the recorded outcome of this test for COc1cc(C(C)C)c2c(c1)S(=O)(=O)N(COc1cc(=O)n3cccc(OCCN4CCCCC4)c3n1)C2=O .
Found: active

Lookup: Tell me the recorded outcome of this test for OC[C@H]1O[C@@H]2O[C@H]3[C@H](O)[C@@H](O)[C@@H](O[C@H]4[C@H](O)[C@@H](O)[C@@H](O[C@H]5[C@H](O)[C@@H](O)[C@@H](O[C@H]6[C@H](O)[C@@H](O)[C@@H](O[C@H]7[C@H](O)[C@@H](O)[C@@H](O[C@H]1[C@H](O)[C@H]2O)O[C@@H]7CO)O[C@@H]6CO)O[C@@H]5CO)O[C@@H]4CO)O[C@@H]3CO .
Found: inactive

Lookup: Tell me the recorded outcome of this test for CC(C)CCCCCCOC(=O)C1CCCCC1C(=O)OCCCCCCC(C)C (centres undefined) .
Found: inactive

Lookup: Tell me the recorded outcome of this test for O=C(O)c1ccc2c(c1)nc(C(=O)NC1CCN(C3CC3)CC1)n2Cc1cc(-c2ccc(Cl)s2)on1 .
Found: inactive

###

read-out: Bcl-2 (BAX) gene, BAX (gene 581); test: LTEA_HepaRG_BAX: Life Technologies and Expression Analysis (LTEA) Assay for Bcl-2 (BAX) gene using HepaRG (AID 2283470); conditions: mRNA level, 48 h; actives raise or lower the signal
Calls of active or inactive are those of the source. The calls were made as follows: active = hit-call score of the fitted dose curve at least 0.9, where 1 is the maximum; inactive = score below 0.9.
// one of active, inactive, no free text

Worked examples follow.
> print(dat)
                          structureassmiles     label
1                        CCCCOC(=O)c1ccccc1  inactive
2  O=S(=O)(O)c1ccc(N=Nc2c(O)ccc3cc(S(=O)(=O)O)ccc23)cc1  inactive
3  COc1cc2c(c(OC)c1OC)-c1ccc(OC)c(=O)cc1[C@@H](NC(C)=O)CC2    active
4  O=C(NO)C1(NS(=O)(=O)c2ccc(Oc3ccc(F)cc3)cc2)CCOCC1  inactive
5  O=C(O)c1cccc(C[C@@H]2COc3ccc(OCc4nc5cc(F)ccc5s4)cc3[C@@H]2O)c1  inactive

Lookup: Tell me the recorded outcome of this test for O=c1[nH]cnc2c1ncn2[C@H]1CC[C@@H](CO)O1 .
Found: inactive

Lookup: Tell me the recorded outcome of this test for CCOc1ccc2[nH]cc(C(=O)NCc3ccccc3)c(=O)c2n1 .
Found: inactive

Lookup: Tell me the recorded outcome of this test for O=C1CN(N=Cc2ccc([N+](=O)[O-])o2)C(=O)N1 .
Found: inactive

Lookup: Tell me the recorded outcome of this test for CC(C)C(=O)Nc1ccc([N+](=O)[O-])c(C(F)(F)F)c1 .
Found: active

Lookup: Tell me the recorded outcome of this test for CNC(C)=O .
Found: inactive

Lookup: Tell me the recorded outcome of this test for Cc1nccn1-c1ccc(Sc2cccc(C3(C(N)=O)CCOCC3)c2)cc1 .
Found: inactive

Lookup: Tell me the recorded outcome of this test for COS(C)(=O)=O .
Found: inactive

Lookup: Tell me the recorded outcome of this test for OCCNCCO .
Found: inactive

Lookup: Tell me the recorded outcome of this test for c1ccc2ncccc2c1 .
Found: inactive

Lookup: Tell me the recorded outcome of this test for NC(=O)N1c2ccccc2C=Cc2ccccc21 .
Found: inactive

Lookup: Tell me the recorded outcome of this test for c1ccc(C(O[C@@H]2CCCN(CCc3ccc4c(c3)OCO4)C2)c2ccccc2)cc1 .
Found: active

###

assay: BSK_LPS_PGE2: BioMAP Diversity Plus: LPS Assay for Prostaglandin E2 (PGE2) Biomarker Activity (AID 2283082); conditions: primary human HUVEC with PBMC; actives raise or lower the signal
The source made the active and inactive calls. Rule for the calls: active = hit-call score of the fitted dose curve at least 0.9, where 1 is the maximum; inactive = score below 0.9.
// one of Yes = active, No = inactive, no free text

> print(dat)
                                   molecule  label
1  FC(F)(F)C(F)(F)C(F)(F)C(F)(F)C(F)(F)C(F)(F)I     No
2                            c1ccc2ncccc2c1     No
3  CC[C@H](C)C(=O)O[C@H]1C[C@H](O)C=C2C=C[C@H](C)[C@H](CC[C@@H](O)C[C@@H](O)CC(=O)O)[C@H]21     No
4  C[C@]12C=CC(=O)C=C1CC[C@H]1[C@@H]3C[C@@H](O)[C@](O)(C(=O)CO)[C@@]3(C)C[C@H](O)[C@@]12F     No
5      Cc1ccc(S(=O)(=O)NC(=O)NN2CCCCCC2)cc1     No
6     CCn1nc(C)c2c1C(=O)NCC(c1ccc(O)cc1)=N2     No

Lookup: Tell me the recorded outcome of this test for CNC(C)=O .
Found: No

Lookup: Tell me the recorded outcome of this test for c1ccc2c(c1)-c1cccc3c1c-2cc1ccccc13 .
Found: No

FYI, the data here is from PubChem BioAssay (EPA / NIEHS).
